Taken from patent US12357536B2.

Field: Concentration recovered, T6M 5° C.. Provide a value for each of the compounds that follow.
# PROTOCOL DESCRIPTION: Stability of a trace element mix in glass bottle, 6 months at 5° C. or 40° C. (Table V)
# APPLIED CONDITIONS: TE mix, pH 2.2, 200 mM malic acid, glass bottle (about 3 ppm DO), heat sterilized, 6 months at 5° C.
Answers are plain numbers, in µg/L.

Hi team, please reply with Concentration recovered, T6M 5° C. for each item in this list.
1. [Cu]
2. [Mo]
3. I [I, iodide]
4. [Cr]
5. [Se]
6. [Zn]

9784
653
3167
306
2446
158347
